B1: Retinoblastoma-associated protein (Homo sapiens), P06400 (parent)
chain: MPPKTPRKTAATAAAAAAEPPAPPPPPPPEEDPEQDSGPEDLPLVRLEFEETEEPDFTALCQKLKIPDHVRERAWLTWEKVSSVDGVLGGYIQKKKELWGICIFIAAVDLDEMSFTFTELQKNIEISVHKFFNLLKEIDTSTKVDNAMSRLLKKYDVLFALFSKLERTCELIYLTQPSSSISTEINSALVLKVSWITFLLAKGEVLQMEDDLVISFQLMLCVLDYFIKLSPPMLLKEPYKTAVIPINGSPRTPRRGQNRSARIAKQLENDTRIIEVLCKEHECNIDEVKNVYFKNFIPFMNSLGLVTSNGLPEVENLSKRYEEIYLKNKDLDARLFLDHDKTLQTDSIDSFETQRTPRKSNLDEEVNVIPPHTPVRTVMNTIQQLMMILNSASDQPSENLISYFNNCTVNPKESILKRVKDIGYIFKEKFAKAVGQGCVEIGSQRYKLGVRLYYRVMESMLKSEEERLSIQNFSKLLNDNIFHMSLLACALEVVMATYSRSTSQNLDSGTDLSFPWILNVLNLKAFDFYKVIESFIKAEGNLTREMIKHLERCEHRIMESLAWLSDSPLFDLIKQSKDREGPTDHLESACPLNLPLQNNHTAADMYLSPVRSPKKKGSTTRVNSTANAETQATSAFQTQKPLKSTSLSLFYKKVYRLAYLRLNTLCERLLSEHPELEHIIWTLFQHTLQNEYELMRDRHLDQIMMCSMYGICKVKNIDLKFKIIVTAYKDLPHAVQETFKRVLIKEEEYDSIIVFYNSVFMQRLKTNILQYASTRPPTLSPIPHIPRSPYKFPSSPLRIPGGNIYISPLKSPYKISEGLPTPTKMTPRSRILVSIGESFGTSEKFQKINQMVCNSDRVLKRSAEGSNPPKPLKKLRFDIEGSDEADGSKHLPGESKFQQKLAEMTSTRTRMQKQKMNDSMDTSNKEEK

# Variants of: B1
# Conditions: with ve7_hpv16 E7, P03129
# Sequence (P03129 whole entry): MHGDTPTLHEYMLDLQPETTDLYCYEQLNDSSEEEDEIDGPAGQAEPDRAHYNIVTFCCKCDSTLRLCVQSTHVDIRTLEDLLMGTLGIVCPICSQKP

{"Mutation List": "E440K", "effect of a mutation on the interaction": "with no effect"}
{"Mutation List": "S474R", "effect of a mutation on the interaction": "with no effect"}
